system: tet operator sequence; assay: β-galactosidase activity of a tetracycline-regulated promoter in transformed E. coli with revTetR, in the presence and absence of anhydrotetracycline (atc); assay type: cell-based, Escherichia coli; conditions: RevTetR isolate cultured in the presence of anhydrotetracycline (ATC)
observed property: β-Galactosidase Activity, Cultured With ATC
No unit in the answer, only the number.

Write down β-Galactosidase Activity, Cultured With ATC measured for item TetRrev6-13: revTetR(BD) G96R L101I (protein, Modified tetracycline repressor, revTetR(BD) G96R L101I) MSRLDKSKVINSALELLNEVGIEGLTTRKLAQKLGVEQPTLYWHVKNKRALLDALAVEILARHHDYSLPAAGESWQSFLRNNAMSFRRALLRYRDRAKVHIGTRPDEKQYDTVETQLRFMTENGFSLRDGLYAISAVSHFTLGAVLEQQEHTAALTDRPAAPDENLPPLLREALQIMDSDDGEQAFLHGLESLIRGFEVQLTALLQIV
2.5043
